subjectOfTest: T1, Taq DNA polymerase (Thermus aquaticus, UniProt P19821 1-832)
T1 construct: also called Taq enzyme; Taq DNA enzyme
assayInfo: AMC sensor, antibody immobilised
recordedEndpoint: koff (s⁻¹)
Give a bare numeral; the unit s⁻¹ is implied.

Example cases with answers are listed next.
>>> number("Mutation 1-28 (antibody, V domains shown, Mutation 1 background; CDRs built; also called Mutation 148) VH: QVQLQQPGAELVKPGASVRLSCQTSVDTFSTYYIYWVKQRPGEGLEWIGGINPTSNPVFNEKFKSKATLTVDTSSSTAYMQLSSLTSVDSAVYYCTRSIVRRGYYFDYWGQGTALTVSS VL: DIQMTQTTSSLSASLGDRVTISCRASQDIQNYINWYQQKPDGTIKLLIYYTSRLHSGIPSRFSGSGSGTDYSLTIANLEQEDIATYFCQQDDTIPITFGAGTKVELKR")
"2.61e-05"
>>> number("Mutation 1-57 (antibody, V domains shown, Mutation 1 background; CDRs built) VH: QVQLQQPGAELVKPGASVRLSCQTSVETFSTYYIYWVKQRPGEGLEWIGGVNPTSNPVFNEKFKSKATLTVDTSSSTAYMQLSSLTSVDSAVYYCTRSVLRRGYYFDYWGQGTALTVSS VL: DIQMTQTTSSLSASLGDRVTISCRASQDINNYLNWYQQKPDGTIKLLIYYTSRLQSGVPSRFSGSGSGTDYSLTIANLEQEDIATYFCQQDDTVPVTFGAGTKVELKR")
"2.49e-05"

Qu. Requested read-out: koff. Entry: Mutation 1-52 (antibody, V domains shown, Mutation 1 background; CDRs built) VH: QVQLQQPGAELVKPGASVRLSCQTSVETFTTYYIYWVKQRPGEGLEWIGGLNPTSGGPVFNEKFKSKATLTVDTSSSTAYMQLSSLTSVDSAVYYCTRSLVRRGYYFDYWGQGTALTVSS VL: DIQMTQTTSSLSASLGDRVTISCRASQDIQNYINWYQQKPDGTIKLLIYYTSRLHSGIPSRFSGSGSGTDYSLTIANLEQEDIATYFCQQDDTLPITFGAGTKVELKR
Ans. 2.37e-05
